EXPERIMENTAL_TARGET: KAT I (Rattus norvegicus, UniProt Q08415)
Construct: kidneys were homogenized in dialysate buffer (1:9; w/v); from tissue; host or cells: rat kidney (dialyzed supernatant of homogenate)
Sequence (Q08415 whole entry): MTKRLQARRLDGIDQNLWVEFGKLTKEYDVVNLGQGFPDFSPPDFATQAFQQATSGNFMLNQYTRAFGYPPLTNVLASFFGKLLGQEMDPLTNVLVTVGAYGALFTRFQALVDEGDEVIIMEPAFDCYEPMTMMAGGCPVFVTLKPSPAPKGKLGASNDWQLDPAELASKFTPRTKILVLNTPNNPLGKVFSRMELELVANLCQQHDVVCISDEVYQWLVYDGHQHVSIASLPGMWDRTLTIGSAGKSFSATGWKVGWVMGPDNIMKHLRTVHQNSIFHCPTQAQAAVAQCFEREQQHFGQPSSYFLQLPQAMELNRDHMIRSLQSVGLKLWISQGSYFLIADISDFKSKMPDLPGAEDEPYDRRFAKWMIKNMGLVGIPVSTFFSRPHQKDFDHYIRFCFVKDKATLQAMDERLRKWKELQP
MEASUREMENT_PROTOCOL: KAT I activity in rat kidney in vitro
Assay type: biochemical
SETTINGS: 2 µM L-KYN, pH 9.5, 2 h, 37 °C, read-out: IC50 of KAT I inhibition
Counter-ions that a name gives are not always drawn.
METRIC_NAME: IC50

COMPOUND | EXPERIMENTAL_TARGET | RESULT
Cc1cnc(NC(=O)C2=C(O)c3ccccc3S(=O)(=O)N2C)s1 [meloxicam, meloxicam sodium salt hydrate] | KAT I (Rattus norvegicus, UniProt Q08415) | 310 µM
CS(=O)(=O)Nc1ccc([N+](=O)[O-])cc1Oc1ccccc1 [nimesulide] | KAT I (Rattus norvegicus, UniProt Q08415) | 128 µM
COc1ccc2c(c1)c(CC(=O)O)c(C)n2C(=O)c1ccc(Cl)cc1 | KAT I (Rattus norvegicus, UniProt Q08415) | 503 µM
